system: SUM149; assay: Cytotoxicity in vitro (MTT) in presence/absence of elastase; format: cell-based; conditions: SUM149, without (−) neutrophil elastase, 72 h
pIC50: −log10 of the molar value.
pIC50 for assorted compounds
property_label: pIC50

CCCNC(=O)Nc1cccc(S(=O)(=O)Nc2cccc([C@H](CC(=O)O)NC(=O)Nc3ccc(NC(=O)NCCOCCOCCOCCC(=O)N[C@@H](CC(=O)O)C(=O)N4CCC[C@H]4C(=O)N[C@H](C(=O)N=[S@@](C)(=O)Cc4cc5cc(c4)OCCCCOc4cc(F)ccc4-c4nc(ncc4F)N5)C(C)C)cc3)c2)c1 | < 7.00
CCCNC(=O)Nc1cccc(S(=O)(=O)Nc2cccc([C@@H](CC(=O)O)NC(=O)Nc3ccc(NC(=O)NCCOCCOCCOCCC(=O)N[C@@H](CC(=O)O)C(=O)N4CCC[C@H]4C(=O)N[C@H](C(=O)N=S(C)(=O)Cc4ccnc(Nc5cc(-c6ccc(F)cc6OC)c(F)cn5)c4)C(C)C)cc3)c2)c1 (relative stereo) | < 7.00

* * *

IC50 for assorted compounds
tested on: SUM149; experiment: Cytotoxicity in vitro (MTT) in presence/absence of elastase; assay type: cell-based; details: SUM149, with (+) 10 nM neutrophil elastase, 72 h
property_label: IC50

CCCNC(=O)Nc1cccc(S(=O)(=O)Nc2cccc([C@@H](CC(=O)O)NC(=O)Nc3ccc(NC(=O)NCCOCCOCCOCCC(=O)NCCCC[C@H](NC(=O)CCOCCOCCOCCNC(=O)Nc4ccc(NC(=O)N[C@H](CC(=O)O)c5cccc(NS(=O)(=O)c6cccc(NC(=O)NCCC)c6)c5)cc4)C(=O)NCCOCCOCCOCCC(=O)N[C@@H](CC(=O)O)C(=O)N4CCC[C@H]4C(=O)N[C@H](C(=O)N=[S@@](C)(=O)Cc4cc5cc(c4)OCCCCOc4cc(F)ccc4-c4nc(ncc4F)N5)C(C)C)cc3)c2)c1 | ≤ 1 nM
CCCNC(=O)Nc1cccc(S(=O)(=O)Nc2cccc([C@H](CC(=O)O)NC(=O)Nc3ccc(NC(=O)NCCN(C)CCN(C)CCN(C)CC(=O)N[C@@H](CC(N)=O)C(=O)N4CCC[C@H]4C(=O)N[C@H](C(=O)N=[S@@](C)(=O)Cc4cc5cc(c4)OCCCCCNc4cc(ccc4F)-c4nc(ncc4F)N5)C(C)C)cc3)c2)c1 (relative stereo) | 1.1 to 10 nM
CCCNC(=O)Nc1cccc(S(=O)(=O)Nc2cccc([C@@H](CC(=O)O)NC(=O)Nc3ccc(NC(=O)N(C)CCN(C)CCN(C)CC(=O)N[C@@H](CC(N)=O)C(=O)N4CCC[C@H]4C(=O)N[C@H](C(=O)N=[S@@](C)(=O)Cc4ccnc(Nc5cc(-c6ccc(F)cc6OC)c(F)cn5)c4)C(C)C)cc3)c2)c1 | 11 to 100 nM

* * *

Tested on: 786-O
Assay: Cytotoxicity assay (Version 2, automated, AC50) with/without neutrophil elastase
Assay type: cell-based, human
Conditions: with (+) neutrophil elastase, Version 2, activity concentration at −50%
Method: Cultivation of cells was performed according to standard procedures with the media recommended by the provider. The cells, in a total volume of 100 μL, were seeded in a 96-well plate with a white bottom (#3610). After a 24 h incubation period at 37° C. and […], the medium was exchanged by adding 90 μL fresh medium. […] The proliferation was detected using the MTT assay (ATCC). […] The formed dye was detected at 570 nm. […]
property_label: AC50

CCCNC(=O)Nc1cccc(S(=O)(=O)Nc2cccc([C@@H](CC(=O)O)NC(=O)Nc3ccc(NC(=O)NCCN(C)CCN(C)CCN(C)CC(=O)N[C@@H](CC(N)=O)C(=O)N4CCC[C@H]4C(=O)N[C@H](C(=O)N=[S@](C)(=O)Cc4cc5cc(c4)OCCCCCNc4cc(ccc4F)-c4nc(ncc4F)N5)C(C)C)cc3)c2)c1 (relative stereo) [Compound 17] | ≤ 10 nM
CCCNC(=O)Nc1cccc(S(=O)(=O)Nc2cccc([C@@H](CC(=O)O)NC(=O)Nc3ccc(NC(=O)NCCOCCOCCOCCC(=O)NCCCC[C@H](NC(=O)CCOCCOCCOCCNC(=O)Nc4ccc(NC(=O)N[C@H](CC(=O)O)c5cccc(NS(=O)(=O)c6cccc(NC(=O)NCCC)c6)c5)cc4)C(=O)NCCN(C)CCN(C)CCN(C)CC(=O)N[C@@H](CC(N)=O)C(=O)N4CCC[C@H]4C(=O)N[C@H](C(=O)N=[S@@](C)(=O)Cc4cc5cc(c4)O[C@@H](C)CCOc4cc(F)ccc4-c4nc(ncc4F)N5)C(C)C)cc3)c2)c1 (relative stereo) [Compound 28] | ≤ 10 nM
CCCNC(=O)Nc1cccc(S(=O)(=O)Nc2cccc([C@@H](CC(=O)[O-])NC(=O)Nc3ccc(NC(=O)NCCOCCOCCOCCC(=O)N[C@@H](CC(=O)[O-])C(=O)N4CCC[C@H]4C(=O)N[C@H](C(=O)N=[S@@](C)(=O)Cc4cc5cc(c4)OCCCCOc4cc(F)ccc4-c4nc(ncc4F)N5)C(C)C)cc3)c2)c1.[Na+].[Na+] [Compound 3] | 11 to 100 nM

* * *

AC50 for assorted compounds
tested on: 786-O; assay: Cytotoxicity assay (Version 2, automated, AC50) with/without neutrophil elastase; assay type: cell-based, human; settings: with (+) neutrophil elastase, Version 2, activity concentration at −50%
property_label: AC50

CCCNC(=O)Nc1cccc(S(=O)(=O)Nc2cccc([C@H](CC(=O)O)NC(=O)Nc3ccc(NC(=O)NCCOCCOCCOCCC(=O)NCCCC[C@H](NC(=O)CCOCCOCCOCCNC(=O)Nc4ccc(NC(=O)N[C@@H](CC(=O)O)c5cccc(NS(=O)(=O)c6cccc(NC(=O)NCCC)c6)c5)cc4)C(=O)NCCOCCOCCOCCC(=O)N[C@@H](CC(=O)O)C(=O)N4CCC[C@H]4C(=O)N[C@H](C(=O)N=[S@@](C)(=O)Cc4cc5cc(c4)OCCCCOc4cc(F)ccc4-c4nc(ncc4F)N5)C(C)C)cc3)c2)c1 | 100 to 1000 nM
CCCNC(=O)Nc1cccc(S(=O)(=O)Nc2cccc([C@@H](CC(=O)O)NC(=O)Nc3ccc(NC(=O)N(C)CCN(C)CCN(C)CC(=O)N[C@@H](CC(N)=O)C(=O)N4CCC[C@H]4C(=O)N[C@H](C(=O)N=S(C)(=O)Cc4cc5cc(c4)OC(C)CCOc4cc(F)ccc4-c4nc(ncc4F)N5)C(C)C)cc3)c2)c1 (relative stereo) | ≤ 10 nM
CCCNC(=O)Nc1cccc(S(=O)(=O)Nc2cccc([C@@H](CC(=O)O)NC(=O)Nc3ccc(NC(=O)NCCOCCOCCOCCC(=O)N[C@@H](CC(=O)O)C(=O)N4CCC[C@H]4C(=O)N[C@H](C(=O)N=S(C)(=O)Cc4ccnc(Nc5cc(-c6ccc(F)cc6OC)c(F)cn5)c4)C(C)C)cc3)c2)c1 (relative stereo) | 100 to 1000 nM
CCCNC(=O)Nc1cccc(S(=O)(=O)Nc2cccc([C@H](CC(=O)O)NC(=O)Nc3ccc(NC(=O)NCCOCCOCCOCCC(=O)N[C@@H](CCCCNC(=O)CCOCCOCCOCCNC(=O)Nc4ccc(NC(=O)N[C@H](CC(=O)O)c5cccc(NS(=O)(=O)c6cccc(NC(=O)NCCC)c6)c5)cc4)C(=O)NCCOCCOCCOCCC(=O)N[C@@H](CC(=O)O)C(=O)N4CCC[C@H]4C(=O)N[C@H](C(=O)N=S(C)(=O)Cc4cc5nc(c4)OCCCOc4cc(F)ccc4-c4cc(ncc4F)N5)C(C)C)cc3)c2)c1 (relative stereo) | ≤ 10 nM
CCCNC(=O)Nc1cccc(S(=O)(=O)Nc2cccc([C@@H](CC(=O)[O-])NC(=O)Nc3ccc(NC(=O)NCCOCCOCCOCCC(=O)N[C@@H](C)C(=O)N(C)[C@@H](C)C(=O)N[C@@H](CC(=O)N=[S@@](C)(=O)Cc4cc5cc(c4)OCCCCOc4cc(F)ccc4-c4nc(ncc4F)N5)C(N)=O)cc3)c2)c1.[Na+] | 100 to 1000 nM

* * *

test system: SUM149; assay: Cytotoxicity assay (Version 2, automated, AC50) with/without neutrophil elastase; assay type: cell-based; conditions: SUM149, without (−) neutrophil elastase, Version 2, activity concentration at −50%
Structures can show the parent of a compound that is named as a salt.
property_label: AC50

CCCNC(=O)Nc1cccc(S(=O)(=O)Nc2cccc([C@H](CC(=O)O)NC(=O)Nc3ccc(NC(=O)NCCN(C)CCN(C)CCN(C)CC(=O)N[C@@H](CC(N)=O)C(=O)N4CCC[C@H]4C(=O)N[C@H](C(=O)N=[S@@](C)(=O)Cc4cc5cc(c4)OCCCCCNc4cc(ccc4F)-c4nc(ncc4F)N5)C(C)C)cc3)c2)c1 (relative stereo) | > 1 µM
CCCNC(=O)Nc1cccc(S(=O)(=O)Nc2cccc([C@@H](CC(=O)O)NC(=O)Nc3ccc(NC(=O)NCCN(C)CCN(C)CCN(C)CC(=O)N[C@@H](CC(N)=O)C(=O)N4CCC[C@H]4C(=O)N[C@H](C(=O)N=[S@@](C)(=O)Cc4cc5cc(c4)OCCCCCNc4cc(ccc4F)-c4nc(ncc4F)N5)C(C)C)cc3)c2)c1 (relative stereo) | 0.1 to 1 µM
CCCNC(=O)Nc1cccc(S(=O)(=O)Nc2cccc([C@@H](CC(=O)O)NC(=O)Nc3ccc(NC(=O)NCCOCCOCCOCCC(=O)NCCCC[C@H](NC(=O)CCOCCOCCOCCNC(=O)Nc4ccc(NC(=O)N[C@H](CC(=O)O)c5cccc(NS(=O)(=O)c6cccc(NC(=O)NCCC)c6)c5)cc4)C(=O)NCCOCCOCCOCCC(=O)N[C@@H](CC(=O)O)C(=O)N4CCC[C@H]4C(=O)N[C@H](C(=O)N=[S@@](C)(=O)Cc4cc5cc(c4)OCCCCOc4cc(F)ccc4-c4nc(ncc4F)N5)C(C)C)cc3)c2)c1 | 0.1 to 1 µM
CCCNC(=O)Nc1cccc(S(=O)(=O)Nc2cccc([C@@H](CC(=O)O)NC(=O)Nc3ccc(NC(=O)NCCN(C)CCN(C)CCN(C)CC(=O)N[C@@H](CC(N)=O)C(=O)N4CCC[C@H]4C(=O)N[C@H](C(=O)N=[S@](C)(=O)Cc4cc5cc(c4)OCCCCCNc4cc(ccc4F)-c4nc(ncc4F)N5)C(C)C)cc3)c2)c1 (relative stereo) | 0.1 to 1 µM
CCCNC(=O)Nc1cccc(S(=O)(=O)Nc2cccc([C@@H](CC(=O)O)NC(=O)Nc3ccc(NC(=O)NCCOCCOCCOCCC(=O)N[C@@H](CC(=O)OCCC[N+](C)(C)C)C(=O)N4CCC[C@H]4C(=O)N[C@H](C(=O)N=S(C)(=O)Cc4cc5cc(c4)OCCCCOc4cc(F)ccc4-c4nc(ncc4F)N5)C(C)C)cc3)c2)c1 (single isomer, unassigned) [Compound 20, trifluoroacetate] | 0.1 to 1 µM
CCCNC(=O)Nc1cccc(S(=O)(=O)Nc2cccc([C@@H](CC(=O)O)NC(=O)Nc3ccc(NC(=O)NCCOCCOCCOCCC(=O)N[C@@H](CC(=O)O)C(=O)N4CCC[C@H]4C(=O)N[C@H](C(=O)N=S(C)(=O)Cc4ccnc(Nc5cc(-c6ccc(F)cc6OC)c(F)cn5)c4)C(C)C)cc3)c2)c1 (relative stereo) | 0.1 to 1 µM
